assay_text: NOVARTIS: Inhibition Frequency Index (IFI) - the number of HTS assays where a compound showed > 50% inhibition/induction, expressed as a percentage of the number of assays in which the compound was tested.
Type: functional
In all, about 5,400 compounds were measured (“IFI”: median about 2, highest 2% from about 22 on). Only a selection was taken, and the highest values are over-represented in it overall.
Rule: IFI under 1% gives FALSE, otherwise TRUE.

Worked examples, 4 molecules total:
Cc1nc2ccccc2c(=O)n1-c1ccc([N+](=O)[O-])cc1 : FALSE
CCOC(=O)CN(N=O)C1=C(N2CC2)C(=O)c2ccccc2C1=O : TRUE
O=C(CCl)Nc1ccc(Cl)cc1 : TRUE
COc1ccc(NC2=C(N3CCCCC3)C(=O)c3ccccc3C2=O)cc1 : TRUE

Now examine the next entry.
Exam item: Hi team, for CCOC(=O)c1ccc2nc(C)cc(Nc3ccc(N4CCCCC4)cc3)c2c1 , is the recorded IFI at or above 1%?
Marked response: TRUE

----------
# key: entry, value: IFI
assay_text: NOVARTIS: Inhibition Frequency Index (IFI) - the number of HTS assays where a compound showed > 50% inhibition/induction, expressed as a percentage of the number of assays in which the compound was tested.
Type: functional
Whole data set: some 5,400 compounds, median “IFI” near 2, cut for the highest 2% near 22. This excerpt belongs to a sample that is enriched for the highest values.
Numeric answer only, unit % assumed.

Here is how some molecules turned out for IFI.
CNC1CC2OC(C)(C1OC)n1c3ccccc3c3c4c(c5c6ccccc6n2c5c31)C(=O)NC4O (configuration not stated) : 28.6
C=CC(C)(CCC=C(C)C)c1ccc2c3c(c[nH]c13)CC(CO)NC(=O)C(C(C)C)N2C (configuration not stated) : 11.3
CC=C[C@H]1O[C@@](O)([C@@H](C)C(O)C(C)[C@H]2OC(=O)C(OC)=CC(C)=C[C@@H](C)[C@@H](O)[C@@H](C)[C@@H](O)C(C)CC(C)=CC=C[C@@H]2OC)C[C@@H](O[C@H]2C[C@@H](O)[C@H](OC(N)=O)[C@@H](C)O2)[C@@H]1C (some centres not stated) : 15.5
O[C@@]1(c2cc3ccccc3s2)CN2CCC1CC2 : 1.63
O=C1Cc2ccccc2C(=C2CCNCC2)c2ccsc21 : 0
COc1cc(CN2CC3CC(C2)c2cccc(=O)n2C3)ccc1O (configuration not stated) : 0

--- query ---
According to the records, this molecule COC1=CC(C)=C[C@@H](C)[C@@H](O)[C@H](C)CC(C)=CC=C[C@H](OC)[C@@H](C(C)C(O)[C@H](C)[C@@]2(O)C[C@@H](O)[C@H](C)[C@@H](C(C)C)O2)OC1=O (some centres not stated) displays IFI of 19.6

----------
assay_text: NOVARTIS: Inhibition Frequency Index (IFI) - the number of HTS assays where a compound showed > 50% inhibition/induction, expressed as a percentage of the number of assays in which the compound was tested.
Assay type: functional
The full ranking holds about 5,400 compounds; the median of “IFI” is about 2, and the highest 2% start at about 22. The full list was thinned out, with the highest values kept by preference.
Everything with IFI lower than 8% is Not met; everything else, including exactly 8%, is Met.

For orientation, consider the following solved cases.
CCC(C)N1CCN(Cc2cccc(OC)c2OC)CC1 (configuration not stated) : Not met
OCCC1CN(Cc2cccc(Cl)c2)CCN1Cc1ccccc1 (configuration not stated) : Not met
CC1CC(C)CC(C)C(O)C(C#N)=CC=CCC(C2CCCC2C(=O)O)OC(=O)CC(O)C(C)C1 (configuration not stated) : Met
C/C=C1/C[C@H]2[C@@H](OC)Nc3cc(O)c(OC)cc3C(=O)N2C1 : Met
O=C1c2ccccc2-c2nc3nnnn3nc21 : Met
c1ccc(-c2nn(-c3ccccc3)[n+](-c3ccccc3)n2)cc1 : Met

Exam item: Would you say NC(=O)Oc1ccc(Cc2ccccc2)cc1 shows IFI at minimum 8%?
Marked response: Not met

These data points were gathered from ChEMBL document CHEMBL1156829.
